test: NCI Yeast Anticancer Drug Screen. Data for the cln2 rad14 strain (AID 165);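 note: 0% = growth equal to vehicle treated cultures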; conditions: S. cerevisiae cln2 rad14 strain, at 50.0 µM, hits give high values
The panel holds about 79,000 compounds, 15% with a hit somewhere; the sample as a whole holds those more often.
# growth inhibition annotations
Entry rule: numbers only, all in %.

Below, each entry is followed by its recorded growth inhibition result.
COc1cccc(COC(=O)Nc2ccccc2)c1OC; 21.5
CCCC1(c2ccccc2)NC(=O)NC1=O (centres undefined); -81.1

As a next step, examine the molecule that follows.
Q. GET /values?readout=growth inhibition&item= O=[N+]([O-])c1cccc2nsnc12
A. 16.6

---

# growth inhibition annotations
assay: NCI Yeast Anticancer Drug Screen. Data for the mlh1 rad18 strain (AID 175); conditions: S. cerevisiae mlh1 rad18 strain growth inhibition; at 50.0 µM; hits give high values
This is part of a sample that, as a whole, favours compounds with a hit. Of some 79,000 tested, about 15% had one in any assay. Calls of active or inactive are those of the source. Cut-off read from the data, not from the text of the source: active = growth inhibition above about 70%; inactive = the rest.

Below, each entry is followed by its recorded growth inhibition result.
CC(C)=NNC(N)=S; -3.95% (inactive)
Cc1ccc(N)cc1[N+](=O)[O-]; 15.8% (inactive)
NC(=O)NC(=O)c1ccc(Cl)cc1; 11.3% (inactive)
O=C(O)/C=C/C(=O)NCc1ccccc1; 26.7% (inactive)
OC1OC(COC(c2ccccc2)(c2ccccc2)c2ccccc2)C(O)C(O)C1O (centres undefined); -17% (inactive)

Q. GET /values?readout=growth inhibition&item= O=C(O)c1cccc([N+](=O)[O-])c1
A. -27.4% (inactive)

Q. GET /values?readout=growth inhibition&item= O=C(Nc1cc(-c2ccccc2)[nH]n1)c1ccc(Cl)cc1
A. -3.3% (inactive)

Q. GET /values?readout=growth inhibition&item= O=C(N/N=C/c1ccccc1O)Nc1nn[nH]n1
A. 9% (inactive)

Q. GET /values?readout=growth inhibition&item= O=[N+]([O-])c1ccccc1S(=O)c1ccccc1[N+](=O)[O-]
A. 14.7% (inactive)

Q. GET /values?readout=growth inhibition&item= CC1C(=O)c2ccccc2CC1C(=O)O (centres undefined)
A. -21% (inactive)

Q. GET /values?readout=growth inhibition&item= CCn1c(=O)n(C)c2c(=O)n(C)c(=O)n(C)c21
A. 2.2% (inactive)

Q. GET /values?readout=growth inhibition&item= N/N=C(/Cc1ccccc1)NNC(N)=S
A. -0.45% (inactive)

Q. GET /values?readout=growth inhibition&item= Cc1cccc(C(=O)N(C(C)C)C(C)C)c1
A. -0.35% (inactive)

---

test: NCI Yeast Anticancer Drug Screen. Data for the mlh1 rad18 strain (AID 175); settings: S. cerevisiae mlh1 rad18 strain growth inhibition; at 50.0 µM; hits give high values
This is part of a sample that, as a whole, favours compounds with a hit. Of some 79,000 tested, about 15% had one in any assay.
Assign class by growth inhibition: not lower than 10% means T; lower than 10% means F.

Q. growth inhibition >= 10% for CN(C)c1ccc2oc(=O)c3ccccc3c2c1 ?
A. F

Q. growth inhibition >= 10% for Cc1ccc(/C=C2\SC(=S)N(c3ccc(F)cc3)C2=O)o1 ?
A. T

Q. growth inhibition >= 10% for O=S(=O)(O)CC(O)CN1CCN(CCO)CC1 (configuration not stated) ?
A. F

Q. growth inhibition >= 10% for CC(=O)c1ccc2c(ccc3ccccc32)c1 ?
A. F

Q. growth inhibition >= 10% for COc1cc2cc(c1Cl)N(C)C(=O)C[C@H](OC(=O)[C@H](C)N(C)C(C)=O)[C@]1(C)O[C@H]1[C@H](C)[C@@H]1C[C@@](O)(NC(=O)O1)[C@H](OC)C=C/C=C(\C)C2 ?
A. T
